# credit: paper PMC11528066

- procedure.summary: Biodistribution (γ-counter)
- Assay type: in vivo, BALB/C nude mice
- stated.conditions: male, BALB/C nude, mouse, tumor and heart, iv, with HN11-1 (block; amount not stated), total radioactivity; 60 min HN11-1 Block; mean ± SD, n = 3; read-out: Tumor/Heart ratio
Peptide text beside a SMILES is read from it. * marks the point of attachment. NOTA = O=C(O)CN1CCN(CC(=O)O)CCN(CC(=O)*)CC1; AEEEA = NCCOCCOCCOCC(=O)O
experimental.endpoint: tissue to tissue ratio at 1 h
// no unit string in output, number only

GET /values?readout=tissue to tissue ratio at 1 h&item= CC[C@H](C)[C@H](NC(=O)[C@H](CCCNC(=N)N)NC(=O)CNC(=O)[C@H](CCC(=O)O)NC(=O)[C@H](CC(N)=O)NC(=O)[C@H](Cc1ccc(O)cc1)NC(=O)[C@H](CCCNC(=N)N)NC(=O)[C@H](Cc1ccc(O)cc1)NC(=O)[C@H](Cc1c[nH]cn1)NC(=O)COCCOCCOCCNC(=O)CN1CCN(CC(=O)O)CCN(CC(=O)O)CC1)C(=O)N[C@@H](CCCNC(=N)N)C(=O)N[C@@H](CC(N)=O)C(=O)O [[^68Ga]Ga-HN11-1, metal not drawn] ({NOTA-AEEEA}-HYRYNEGRIRN-OH)
3.68
